- test_target: human dihydrofolate reductase (DHFR) (Homo sapiens, UniProt P00374)
- Construct: was obtained from human leukemic lymphoblasts (WI-L2/M4 cells); endogenous in cells; enzyme purified from the cells according to Delcamp et al., Biochemistry 22, 633-639 (1983)
- Sequence (P00374 whole entry): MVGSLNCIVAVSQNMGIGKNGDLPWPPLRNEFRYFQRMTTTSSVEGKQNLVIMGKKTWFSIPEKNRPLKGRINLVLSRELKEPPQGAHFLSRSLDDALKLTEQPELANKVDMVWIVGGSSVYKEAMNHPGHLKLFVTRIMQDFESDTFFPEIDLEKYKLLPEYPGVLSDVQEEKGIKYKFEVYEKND
- assay_explanation: Inhibition of isolated human dihydrofolate reductase (Table III)
- measurement_conditions: DHFR (5 × 10^-8 M); read-out: DHFR IC50, concentration required for 50% inhibition of enzyme activity
value_type: pIC50
pIC50 is a log-scale quantity: -log10 of the concentration expressed in molar.

Q: Which value of pIC50 has been reported for Nc1ncc2c(n1)NCC2CCc1ccc(C(=O)N[C@@H](CCC(=O)O)C(=O)O)cc1 (stereo partly shown) in the records?
Result: 7.02
